B1: PLK2 (parent)
chain: MELLRTITYQPAASTKMCEQALGK

variants of: B1; assay: protein stability index of a GFP-peptide fusion (GPS, HEK-293T) (PSI 1-6); higher = more stable; settings: c terminus: a fixed tail appended;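 further: lentivirally expressed fusions sorted by FACS into six bins by GFP to DsRed ratio, PSI derived from sequencing read proportions per bin multiplied by bin number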
Result Type: protein stability index

> print(dat)
                  ordered.residues              result.type  observed
1   MELLRGITYQPAASTKMCEQALGK [T6G]  protein stability index      3.05
2   MELKRTITYQPAASTKMCEQALGK [L4K]  protein stability index      4.05
3   MELCRTITYQPAASTKMCEQALGK [L4C]  protein stability index      2.02
4  MELLRTITYQPAASTKMCEQALGY [K24Y]  protein stability index      3.96
5   MERLRTITYQPAASTKMCEQALGK [L3R]  protein stability index      2.24
6   MELLRTICYQPAASTKMCEQALGK [T8C]  protein stability index      2.32
7   MELLRKITYQPAASTKMCEQALGK [T6K]  protein stability index      2.19
